Form field: pIC50 (one value per entry).
# TARGET ENTITY: UniProtKB Q99KQ4
# Sequence (Q99KQ4 whole entry): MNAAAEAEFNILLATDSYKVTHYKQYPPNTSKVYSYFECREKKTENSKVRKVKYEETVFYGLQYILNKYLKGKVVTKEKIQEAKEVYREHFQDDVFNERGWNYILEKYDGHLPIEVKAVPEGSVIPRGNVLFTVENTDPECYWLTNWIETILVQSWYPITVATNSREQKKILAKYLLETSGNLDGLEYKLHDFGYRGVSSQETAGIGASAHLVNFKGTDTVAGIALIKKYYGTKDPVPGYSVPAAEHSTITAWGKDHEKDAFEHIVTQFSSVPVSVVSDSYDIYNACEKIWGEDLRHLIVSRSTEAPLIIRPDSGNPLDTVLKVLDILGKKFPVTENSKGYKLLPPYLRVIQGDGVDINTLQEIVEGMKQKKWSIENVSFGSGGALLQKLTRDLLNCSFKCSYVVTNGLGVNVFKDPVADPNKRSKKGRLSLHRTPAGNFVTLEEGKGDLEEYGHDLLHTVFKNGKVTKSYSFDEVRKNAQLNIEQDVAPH
# TEST SUMMARY: Inhibition of recombinant mouse NAMPT expressed in bacteria assessed as reduction in NADH formation using [14C]NAM as substrate measured for 1 hr by coupled enzymatic assay
Entry type: numeric. Quantity: pIC50, the -log10 of concentration in molar units.

Use the examples below as a reference point.
{"MOL": "O=C(/C=C/c1cccnc1)NCCCCCc1cn(-c2ccccc2-c2ccccc2)nn1", "pIC50": 6.94}
{"MOL": "O=C(CCCCCc1cn(-c2ccccc2-c2ccccc2)nn1)NCCc1cccnc1", "pIC50": 6.77}
{"MOL": "O=C(CCCCCc1cn(-c2ccccc2-c2ccccc2)nn1)NCc1cccnc1", "pIC50": 6.57}

Next up:
Returns the measured pIC50 for the input compound. Input: O=C(/C=C/c1cccnc1)NCCCCC1CCN(C(=O)c2ccccc2)CC1
7.21
